- Tested on: Human immunodeficiency virus 1
- MEASUREMENT DESCRIPTION: In vitro antiviral activity in HIV-1 CEM-SS cytoprotection assay.
- Assay type: functional, organism-based
- ASSAY CONDITIONS: Human immunodeficiency virus 1, CEM-SS
READOUT NAME: EC50 (nM)
Give bare numbers, in nM.

{"MOL": "C[C@H](NC(=O)c1ccccc1SC(=O)NCCBr)C(N)=O", "TARGET ENTITY": "Human immunodeficiency virus 1", "MEASUREMENT UNITS": "nM", "EC50": 920}

Continue with the next compound.
Query: EC50; subject: NC(=O)CCNC(=O)c1ccccc1SC(=O)NCCBr 480
